Test system: Gerbillinae
Test: Inhibition of GR-73632-induced foot tapping in gerbils at 3 mg/kg, iv after 24 hrs
Type: functional
Details: Gerbillinae, iv, 24 h
Measured Parameter: inhibition in vivo at 3 mg/kg (%)
Express the result in % but write the number alone.

C[C@@H](O[C@@H]1CN(C2=CC(=O)N(C)C2)C[C@H]1c1ccc(F)cc1)c1cc(C(F)(F)F)cc(C(F)(F)F)c1 = 8
C[C@@H](O[C@@H]1CN(C2=CC(=O)OC2)C[C@H]1c1ccc(F)cc1)c1cc(C(F)(F)F)cc(C(F)(F)F)c1 = 67
Cc1cnc(C(=O)N2C[C@@H](O[C@H](C)c3cc(C(F)(F)F)cc(C(F)(F)F)c3)[C@H](c3ccc(F)cc3)C2)cn1 = 45
C[C@@H](O[C@@H]1CN(C2=CC(=O)CC2)C[C@H]1c1ccc(F)cc1)c1cc(C(F)(F)F)cc(C(F)(F)F)c1 = 100
C[C@@H](O[C@@H]1CN(C(=O)N2CCn3c(nnc3C(F)(F)F)C2)C[C@H]1c1ccc(F)cc1)c1cc(C(F)(F)F)cc(C(F)(F)F)c1 = 66

Recorded inhibition in vivo at 3 mg/kg of C[C@@H](O[C@@H]1CN(C2=CC(=O)C(O)C2)C[C@H]1c1ccc(F)cc1)c1cc(C(F)(F)F)cc(C(F)(F)F)c1 (stereo in doubt) , please.
95

Recorded inhibition in vivo at 3 mg/kg of CC1=C(N2C[C@@H](O[C@H](C)c3cc(C(F)(F)F)cc(C(F)(F)F)c3)[C@H](c3ccc(F)cc3)C2)CCC1=O , please.
67

All figures here come from ChEMBL document CHEMBL1139768.
